These data points were gathered from patent US20210079109A1.

# Subject of test: T1, human CD63 (human, UniProt P08962 2-238)
# T1 construct: stably transfected in NIH3T3/hCD63; The cell line is named under assay; also called hCD63
# T1 sequence: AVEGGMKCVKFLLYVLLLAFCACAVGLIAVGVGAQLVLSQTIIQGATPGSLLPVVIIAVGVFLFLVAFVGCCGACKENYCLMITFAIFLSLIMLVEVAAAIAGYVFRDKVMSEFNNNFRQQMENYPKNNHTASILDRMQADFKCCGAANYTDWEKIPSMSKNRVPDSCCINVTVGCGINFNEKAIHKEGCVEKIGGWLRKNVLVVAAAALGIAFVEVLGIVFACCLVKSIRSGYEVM
# Protocol details: ECL, U87MG cells
Items are presented alongside their recorded EC50.
Response body: numeric value in nM, unit text excluded.

// below: answered binders
[
  {
    "Binder": "H2M12387N (antibody, V domains shown, also called H2aM12387N) VH: QVQLEESGGGVVKAGGSLRLSCAASGFTFSDYYMNWIRQAPGKGLEWVSYINNGGYTIYYADSVKGRFTMSRDNAKNSVYLQMNGLRAEDTAFYYCVRDPRSYYGFDYWGQGTLVIVSS VL: DIQMTQSPSSLSASVGDRVTITCRASQSISRFLHWYQQKPGKAPKLLIYGASSLQSGVPSRFSGSGSGTDFTLTISSLQPEDFATYYCQQSYSTPPITFGQGTRLEIK",
    "EC50 (nM)": 0.29
  },
  {
    "Binder": "H1M12388N (antibody, V domains shown) VH: QVQLEESGGGVVKAGGSLRLSCAASGFTFSDYYINWIRQAPGKGLEWVSYINNGGYTIYYADSVKGRFTMSRDNAKNSVYLQMNGLRAEDTAFYYCVRDPRSYYGFDYWGQGTLVTVSS VL: DIQMTQSPSSLSASVGDRVTITCRASQSISRFLHWYQQKPGKAPKLLIYGASSLQSGVPSRFSGSGSGTDFTLTISTLQPEDFATYYCQQSYSTPPITFGQGTRLEIK",
    "EC50 (nM)": 0.3
  }
]

Now, please, on to the next binder.
Requested field: EC50. Item: H2M12452N (antibody, V domains shown, also called H2aM12452N) VH: QVQLQEAGPGLVKPSETLSLTCIVSGGSISGFYWNWIRQPPGKGLEWIGYFLYSGTIDYNPSLKSRVTISVDTSKNQFFLKLSFVTAADTAVYYCVRMGLGANAFDIWGRGTMVTVSS VL: EIVLTQSPGTLSLSPGERATLSCRASQTVSRSFLAWYQQKPGQAPRLLIYGPSSRATGIPDRFSGSGSGTDFTLTISRLEPEDFAVYYCQQYGNSPWTFGQGTKVEIK
2
